# assay overview: in vivo
# setup conditions: rat, plasma, iv
reported property: half-life (min)

molecule	unit descriptor	half-life
CCc1cccc(COC(=O)NC(C(=O)N[C@@H](Cc2ccccc2)C[C@H](O)[C@H](Cc2ccccc2)NC(=O)OCc2cccnc2)C(C)C)n1 (stereo partly drawn)	min	23.4
CC(C)c1nc(CN(C(=O)NCCC(=O)N[C@@H](Cc2ccccc2)[C@@H](O)C[C@H](Cc2ccccc2)NC(=O)OCc2cncs2)C2CC2)cs1	min	20.4
CC(C)C(NC(=O)N(C)Cc1csc(C(C)(C)C)n1)C(=O)N[C@@H](Cc1ccccc1)C[C@H](O)[C@H](Cc1ccccc1)NC(=O)OCc1cccnc1 (stereo partly drawn)	min	17.4

Where do these numbers come from? They come from ChEMBL document CHEMBL1131475.
